# Test system: ACHN renal
# Measurement Description: NCI-60 one-dose screen, 48 h (100 = growth as untreated, 0 = no growth, -100 = all killed)
# Particulars: 10 µM unless noted
This is part of a sample that, as a whole, favours compounds with a hit. Of some 83,000 tested, about 20% had one in any assay.
Cut-off 30% on growth, inclusive. At or above means yes (1); below means no (0).

Past entries and their recorded results:
>>> group("CCSC1=CC(=O)c2ccccc2C1=O")
"no (0)"
>>> group("CCOC(=O)Cn1c(=O)c2c3ccccc3n(C)c2n2nnc(-c3ccccc3)c12")
"yes (1)"
>>> group("C=C(C)[C@@H]1CC[C@]2(CO)CC[C@]3(C)[C@H](CC[C@@H]4[C@@]5(C)CCC(NCCc6ccc(O)cc6)C(C)(C)[C@@H]5CC[C@]43C)[C@@H]12 (stereo partly specified)")
"no (0)"
>>> group("Cn1cc(-c2nn3cc(-c4ccccc4)nc3s2)c2ccccc21")
"yes (1)"

-- ask In plain terms: is recorded growth at least 30% for CCN1C(=O)N(CC)C2C1NN=c1s/c(=C3\C(=O)N(CCc4ccccc4)c4ccccc43)c(=O)n12 (stereo unspecified) ?
-- reply no (0)

-- ask hey, is growth for this one >= 30%? COC(=O)C1=C(C(=O)Nc2cccnc2)C2OC1(C(Cc1ccccc1)Oc1ccccc1)C1OC21 (stereo unspecified)
-- reply no (0)

-- ask Please check the record CCCCCSB(SCCCCC)c1ccccc1 and state if its growth is at or above 30%.
-- reply yes (1)

-- ask Threshold query (growth >= 30%) on O=C(OC[C@@H]1CO1)c1cccc2c(=O)c3ccccc3[nH]c12
-- reply no (0)

-- ask Check this molecule for growth at or above 30%: COc1ccc2nc3ccccc3c(NCc3ccccc3)c2c1
-- reply no (0)

-- ask Could you verify whether the entry Cc1ncc(C(=O)Nc2ccc(CN3CCN(C)CC3)c(C(F)(F)F)c2)cc1C#Cc1cnc(N)c2cnccc12 shows growth of no less than 30%?
-- reply no (0)

-- ask Please check the record COC(=O)c1nc(-c2ccccc2)oc1S(=O)(=O)N1CCC(C(N)=O)CC1 and state if its growth is at or above 30%.
-- reply yes (1)

-- ask Has O=C(N/N=C/c1ccc(Cl)cc1Cl)c1ccc2nc(-c3ccc(Cl)cc3)[nH]c2c1 a recorded growth greater than or equal to 30%?
-- reply no (0)

----------
# Tested on: OVCAR-4 ovarian
# Measurement Description: NCI-60 one-dose screen, 48 h
# Particulars: 10 µM unless noted
Compounds without any hit were thinned out: in the full panel of roughly 83,000, 20% have a hit. Active and inactive are the calls of the source. How the source made its calls: active means growth percent below 10; inactive means the rest.
Allowed answers: active, inactive

-- ask Hey, what did the test say about S=c1[nH]c2cc(Cl)ccc2o1 ?
-- reply inactive

-- ask Query: recorded result category for CN1C(=O)N(C)C2C1NC(=S)N2/N=C/C=C/c1ccccc1[N+](=O)[O-] (stereo not drawn) in this test
-- reply inactive

-- ask Each compound tested received a call. Report the one for CN1CCN(CCCOC(=O)c2c3c(n4ccccc24)C(=O)c2ncccc2C3=O)CC1 .
-- reply active

----------
# Test system: MALME-3M melanoma
# Measurement Description: NCI-60 one-dose screen, 48 h (100 = growth as untreated, 0 = no growth, -100 = all killed)
# Particulars: 10 µM unless noted
About 83,000 compounds went through this panel and 20% of them were active in at least one assay; those are over-represented in the sample as a whole.
Quick reference: growth of the listed items.
Express it in %; write the number only.

>>> readout_number("S=c1[nH]c2cc(Cl)ccc2o1")
102
>>> readout_number("O=C1/C(=C/c2ccccc2[N+](=O)[O-])COc2ccc(O)cc21")
-56.9
>>> readout_number("CN(CCC#N)c1ccc(/C=C2\\NC(=O)NC2=O)cc1")
113
>>> readout_number("N#C/C(=C\\c1ccc(Br)cc1)c1cc2ccccc2[nH]1")
99.3
>>> readout_number("COc1cc(/C=N/Nc2ccccc2F)cc(OC)c1OC")
99

-- ask Look at this compound and give its reported growth. CCOC(=O)c1c(C)nn(CC(O)c2ccccc2)c1NC(=O)Nc1cccc(F)c1 (stereo unspecified)
-- reply 101

-- ask // growth lookup, key: COc1cc(Nc2ncccc2NC(=O)c2cn(Cc3cccc(Oc4ccccc4)c3)nn2)cc(OC)c1
-- reply 92.3

-- ask Any idea what its growth is? The compound is Clc1ccc(-c2cn3ccsc3n2)c(Cl)c1Cl
-- reply 117

-- ask Fill in: growth of O=C1OCC2=C1C(c1cccc(F)c1)c1cc3c(cc1N2CCO)OCO3 (stereo unspecified) is ___
-- reply 52.7

-- ask Find the recorded growth belonging to O=C1C(Cl)=C(NCCN2CCOCC2)C(=O)c2ncccc21 and report it.
-- reply -79.3

-- ask What measured growth goes with Cc1nc2sc(C(=O)Nc3ccc(Cl)cc3)c(N)c2cc1C(O)c1ccccc1 (stereo unspecified) ?
-- reply 44.1
